protocol_description: Half-life test (thermal decomposition in ethyl benzene, 10-hour half life temperature)
Type: physicochemical
measurement_context: 1% (w/w) solution in ethyl benzene; calculated by Arrhenius equation
quantity_name: temperature for 10-hour half life (°C)
One number for each entry, in °C.

Consider the worked cases shown below.
1) CC(C)NC(=O)C(C)(C)N=NC(C)(C)C(=O)NC(C)C [Example 4] :: 111.2
2) CC(C)CNC(=O)C(C)(C)N=NC(C)(C)C(=O)NCC(C)C [Example 2] :: 112.0
3) CCCCNC(=O)C(C)(C)N=NC(C)(C)C(=O)NCCCC [Example 3] :: 110.6

Dear colleague, could you send me temperature for 10-hour half life for each of the items below? Thanks.
1. CCNC(=O)C(C)(C)N=NC(C)(C)C(=O)NCC [Example 7]
2. CCCCCCNC(=O)C(C)(C)N=NC(C)(C)C(=O)NCCCCCC [Example 5]
3. CC(C)(N=NC(C)(C)C(=O)NC1CCCCC1)C(=O)NC1CCCCC1 [Example 1]
4. CCCNC(=O)C(C)(C)N=NC(C)(C)C(=O)NCCC [Example 6]

result:
1: 109.6; 2: 111.6; 3: 111.0; 4: 110.8

---

protocol_description: Solubility of azoamide compound in 100 g of solvent at 25° C. (Table 1)
Format: physicochemical
measurement_context: in 100 g of ethyl acetate
quantity_name: Solubility in ethyl acetate (g)
One number for each entry, in g.

1. CNC(=O)C(C)(C)N=NC(C)(C)C(=O)NC [Comparative example, reference compound] :: 1.2
2. CC(C)NC(=O)C(C)(C)N=NC(C)(C)C(=O)NC(C)C [Example 4] :: 11.0
3. CC(C)CNC(=O)C(C)(C)N=NC(C)(C)C(=O)NCC(C)C [Example 2] :: 14.0
4. CC(C)(N=NC(C)(C)C(=O)NC1CCCCC1)C(=O)NC1CCCCC1 [Example 1] :: 3.5

Query molecule follows.
query: Entry under review: CCNC(=O)C(C)(C)N=NC(C)(C)C(=O)NCC [Example 7] . Reported Solubility in ethyl acetate?
result: 11.0

---

Consider the following compounds; for each one, report its Solubility in toluene.
protocol_description: Solubility of azoamide compound in 100 g of solvent at 25° C. (Table 1)
Format: physicochemical
measurement_context: in 100 g of toluene

1) CC(C)CNC(=O)C(C)(C)N=NC(C)(C)C(=O)NCC(C)C :: 8.0 g

Query compound follows.
query: Entry under review: "CCNC(=O)C(C)(C)N=NC(C)(C)C(=O)NCC" . Reported Solubility in toluene?
result: 4.0 g

---

protocol_description: Solubility of azoamide compound in 100 g of solvent at 25° C. (Table 1)
Assay type: physicochemical
measurement_context: in 100 g of toluene
Consider the following compounds; for each one, report its Solubility in toluene.
Answers are plain numbers, in g.

1. CC(C)NC(=O)C(C)(C)N=NC(C)(C)C(=O)NC(C)C :: 5.0

Query compound follows.
query: Entry under review: "CC(C)(N=NC(C)(C)C(=O)NC1CCCCC1)C(=O)NC1CCCCC1" . Reported Solubility in toluene?
result: 5.5

---

protocol_description: Solubility of azoamide compound in 100 g of solvent at 25° C. (Table 1)
Assay type: physicochemical
measurement_context: in 100 g of ethyl acetate
quantity_name: Solubility in ethyl acetate

1) CCCNC(=O)C(C)(C)N=NC(C)(C)C(=O)NCCC :: easily soluble
2) CCCCNC(=O)C(C)(C)N=NC(C)(C)C(=O)NCCCC :: easily soluble
3) CCCCCCNC(=O)C(C)(C)N=NC(C)(C)C(=O)NCCCCCC :: easily soluble

---

protocol_description: Solubility of azoamide compound in 100 g of solvent at 25° C. (Table 1)
Format: physicochemical
measurement_context: in 100 g of toluene
quantity_name: Solubility in toluene

1) CCCCNC(=O)C(C)(C)N=NC(C)(C)C(=O)NCCCC [Example 3] :: easily soluble
2) CNC(=O)C(C)(C)N=NC(C)(C)C(=O)NC [Comparative example, reference compound] :: ≤ 0.5 g
3) CCCNC(=O)C(C)(C)N=NC(C)(C)C(=O)NCCC [Example 6] :: easily soluble
